Tested on: PC3 cells
protocol summary: PC3 growth inhibition (Cell-titer glo, 72 hours)
Assay type: cell-based
measurement conditions: Homo sapiens, PC-3, 72 h, read-out: Percent Viability, PC3 cells, compound concentration 1.667 μM, 72 hours

compound	viability at 1.667 µM / %
CCOc1cc(-c2ccncc2)nc2cc(C(=O)NCCCc3nnc[nH]3)ccc12 [Compound I-214]	1
CCOc1cc(-c2ccc(F)cc2)nc2cc(C(=O)NCCc3cncn3C)ccc12 [Compound I-2]	2
CCOc1cc(-c2ccc(F)cc2)nc2cc(C(=O)NCCc3cn[nH]c3)ccc12 [Compound I-48]	4
CCOc1cc(-c2ccc(=O)n(C)c2)nc2cc(C(=O)NCCc3[nH]nnc3C)ccc12 [Compound I-76]	11
CCOc1cc(-c2cc(C)cnc2OC)nc2cc(C(=O)NCCCc3nnc[nH]3)ccc12 [Compound I-159]	2
